All values here come from PubChem BioAssay.

Field: viability. Provide a value for each of the compounds that follow.
test: MRP1 drug-resistance reversers in H69AR cells – cell-based, doxorubicin co-treatment, pilot screen (AID 601)
test_context: H69AR cells, CellTiter-Glo, 72 h; compound alone cytotoxicity; at 10 µM
Supply the numeric figure in %, leaving out any unit text.

Exercise: Can you look up the measured viability of CCOC(=O)c1sc2nc(NC(=O)C(C)(C)C)sc2c1C for me?
Solution: 79.3

Exercise: Can you look up the measured viability of CC(C)(NC(=O)N1CCCC1)c1cccc(C(C)(C)NC(=O)N2CCCC2)c1 for me?
Solution: 95.5

Exercise: Can you look up the measured viability of COc1cccc(NC(=O)CSc2nnc(Cc3cccn3C)n2-c2ccc(F)cc2)c1 for me?
Solution: 78.2

Exercise: Can you look up the measured viability of CCCCOc1ccc(-c2ncc(Cl)cn2)cc1 for me?
Solution: 93.9

Exercise: Can you look up the measured viability of O=C(CCS(=O)(=O)c1cccc2nsnc12)NCc1ccccc1 for me?
Solution: 106

Exercise: Can you look up the measured viability of COc1cc(C2N3CC4(C)CN2CC(C)(C3)C4)ccc1O (stereo unspecified) for me?
Solution: 104

Exercise: Can you look up the measured viability of CCc1ccc(C(=O)NC2CCCCC2)s1 for me?
Solution: 109

Exercise: Can you look up the measured viability of COc1ccc(-n2c(=O)c3c4c(sc3n3cnnc23)CC(C)CC4)cc1 (stereo unspecified) for me?
Solution: 72.2

Exercise: Can you look up the measured viability of CN(C)c1oc(-c2ccccc2F)nc1C#N for me?
Solution: 101

Exercise: Can you look up the measured viability of COc1ccc(OC)c(C2=NOC(C(=O)Nc3c(C)n(C)n(-c4ccccc4)c3=O)C2)c1 (stereo unspecified) for me?
Solution: 95.3

Exercise: Can you look up the measured viability of CCOc1cc(C2NC(=O)NC(O)(C(F)(F)F)C2C(=O)c2ccccc2)ccc1OC (stereo unspecified) for me?
Solution: 102

Exercise: Can you look up the measured viability of CCC1CCCCN1C(=O)CSc1nnc(-c2ccc(OC)cc2)o1 (stereo unspecified) for me?
Solution: 87.6

Exercise: Can you look up the measured viability of CCC(=O)Nc1cccc(Br)c1 for me?
Solution: 95.4

Exercise: Can you look up the measured viability of CCOc1ccc(N2C(=O)CC(N3CC(C)OC(C)C3)C2=O)cc1 (stereo unspecified) for me?
Solution: 89.2

Exercise: Can you look up the measured viability of CCOC(=O)Cn1c(CN(C)Cc2ccccc2)nc2c1c(=O)n(C)c(=O)n2C for me?
Solution: 87.1

Exercise: Can you look up the measured viability of CC(C)NC(=O)c1ccc2c(c1)nnn2C for me?
Solution: 99.4

Exercise: Can you look up the measured viability of Cc1cc(C)cc(N2C(=O)CC(N3CCOCC3)C2=O)c1 (stereo unspecified) for me?
Solution: 191

Exercise: Can you look up the measured viability of O=C(Nc1ccncc1)c1cc2ccccc2o1 for me?
Solution: 105

Exercise: Can you look up the measured viability of CCOc1ccc(N(CC(=O)Nc2ccc(C)c(C)c2)S(=O)(=O)c2c(C)noc2C)cc1 for me?
Solution: 53.8

Exercise: Can you look up the measured viability of CCCCOC(=O)c1[nH]c2c(c1C)C(=O)CC(c1cc(OC)c(OC)c(OC)c1)C2 (stereo unspecified) for me?
Solution: 72.4

Exercise: Can you look up the measured viability of COc1cc(OC)c2c(c1)OC(c1ccc(OC)c(OC)c1)C(O)C2=O (stereo unspecified) for me?
Solution: 90.9

Exercise: Can you look up the measured viability of Cc1c(C(=O)Nc2nnc(C(F)(F)F)s2)oc2ccccc12 for me?
Solution: 84.8

Exercise: Can you look up the measured viability of O=C(O)C1CC=CCC1C(=O)Nc1cccc(F)c1 (stereo unspecified) for me?
Solution: 87.1

Exercise: Can you look up the measured viability of O=c1c(-c2ccccc2)coc2c(CN3CCOCC3)c(O)ccc12 for me?
Solution: 99

Exercise: Can you look up the measured viability of O=C(COC(=O)C1CC2C=CC1C2)Nc1ccc2c(c1)OC(F)(F)O2 (stereo unspecified) for me?
Solution: 94.3

Exercise: Can you look up the measured viability of CCOc1cc(C2C3=C(CCCC3=O)N(C)C3=C2C(=O)CCC3)cc(Cl)c1O for me?
Solution: 104

Exercise: Can you look up the measured viability of O=C(Cn1nc(Cc2ccncc2)c2ccccc2c1=O)N1CCN(C(=O)c2ccco2)CC1 for me?
Solution: 86

Exercise: Can you look up the measured viability of COc1ccc(NS(=O)(=O)c2ccc(NC(C)=O)cc2)cc1OC for me?
Solution: 94.5

Exercise: Can you look up the measured viability of CCN(CC)C(=O)COC(=O)c1ccc(O)cc1 for me?
Solution: 91.2

Exercise: Can you look up the measured viability of CSc1ccccc1NC(=O)C1CCCO1 (stereo unspecified) for me?
Solution: 93.9

Exercise: Can you look up the measured viability of COc1ccc(-c2nn(-c3ccccc3)cc2/C=N/n2cnnc2)cc1OC for me?
Solution: 79.8

Exercise: Can you look up the measured viability of Cc1cccc(Cn2c(SCCN3CCCCC3)nc3c2c(=O)[nH]c(=O)n3C)c1 for me?
Solution: 73.7

Exercise: Can you look up the measured viability of CCOc1ccc(C2CC(c3ccccc3C)n3nc(N)nc3N2)cc1 (stereo unspecified) for me?
Solution: 87.9

Exercise: Can you look up the measured viability of COc1ccc(OC)c(C(C)NC=O)c1 (stereo unspecified) for me?
Solution: 99.5

Exercise: Can you look up the measured viability of Cc1cc(C)c(NC(=O)Cn2cc3c(n2)CCCC3)c(C)c1 for me?
Solution: 96.5

Exercise: Can you look up the measured viability of COCCOC(=O)c1[nH]c2c(c1C)C(=O)CC(c1ccco1)C2 (stereo unspecified) for me?
Solution: 23.6

---

test: viability of HCT116 without oncogenic beta-catenin – human colon tumor cells, pilot screen (AID 823);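 also: 0% = wells killed by 20 µM Hyamine and 100% = untreated DMSO cell wells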
test_context: HCT116 beta-catenin knockout viability, CellTiter-Glo, 60 h; at 10 µM; stronger effect = lower value
Inconclusive results are not listed.
Field: viability. Provide a value for each of the compounds that follow.
Supply the numeric figure in %, leaving out any unit text.

Exercise: Can you look up the measured viability of CC1CCCCC1NC(=O)Cn1ncc2ccccc21 (centres undefined) for me?
Solution: 98.6

Exercise: Can you look up the measured viability of COc1ccc(Cl)cc1S(=O)(=O)N1CCN(c2ccc(F)cc2)CC1 for me?
Solution: 82.4

Exercise: Can you look up the measured viability of CS(=O)(=O)Nc1ccccc1C(=O)O for me?
Solution: 94.9

Exercise: Can you look up the measured viability of CC(=O)c1ccc(NC(=O)CSC(C)C)cc1 for me?
Solution: 102

Exercise: Can you look up the measured viability of CCOCCCNC(=O)CN1CCN(Cc2ccccc2C)C1=O for me?
Solution: 94.7

Exercise: Can you look up the measured viability of CC(=O)NC(CCS(C)(=O)=O)C(=O)Nc1cccc2ccccc12 (centres undefined) for me?
Solution: 103

Exercise: Can you look up the measured viability of O=C(Nc1nc(-c2ccco2)c(-c2ccco2)s1)C1CC(=O)N(c2ccc3c(c2)OCCO3)C1 (centres undefined) for me?
Solution: 76.5

Exercise: Can you look up the measured viability of COc1cc(C(=O)NCCc2ccc3c(c2)OCCO3)ccc1OCC(=O)N1CCOCC1 for me?
Solution: 97.6

Exercise: Can you look up the measured viability of COC(=O)c1cn(C(=O)c2ccc(Br)o2)c2ccccc12 for me?
Solution: 98.2

Exercise: Can you look up the measured viability of Cc1ccc(C2CC(=O)NC(SCc3ccccc3)=C2C#N)o1 (centres undefined) for me?
Solution: 85.7

Exercise: Can you look up the measured viability of Cc1cc(=O)[nH]c(SCC(=O)NCCOc2ccccc2)n1 for me?
Solution: 102

Exercise: Can you look up the measured viability of CCC(C)NC(=O)c1cc(CC(C)C)on1 (centres undefined) for me?
Solution: 102

Exercise: Can you look up the measured viability of O=C(NCCOC(=O)C1COc2ccccc2O1)C1COc2ccccc2O1 (centres undefined) for me?
Solution: 102

Exercise: Can you look up the measured viability of O=C(Cc1cc(=O)[nH]c(=O)[nH]1)NCC1CCCO1 (centres undefined) for me?
Solution: 106

---

test: H69AR cell proliferation blockers – human, duplicate replicates, primary screen (AID 580);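 also: 100% = mean luminescence of untreated wells and 0% = no signal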
test_context: H69AR lung tumor cells viability, ATP luminescence, 72 h; at 10 µM; stronger effect = lower value
Calls of active or inactive are those of the source.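 How the source made its calls: active means viability at or under a set limit in both replicates, limit being median viability minus 3 SD (cut at about 48% in these data, passing the limit was not always enough); inconclusive means at or under the limit in just one replicate; inactive means at or above the limit in both replicates.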
property_name: viability

Exercise: Can you look up the measured viability of Cc1ccccc1OCc1nnc2n1CC(C)S2 (stereo unspecified) for me?
Solution: 92.3% (inactive)

Exercise: Can you look up the measured viability of CCOc1ccc(NS(=O)(=O)c2cc(Cl)ccc2OC)cc1 for me?
Solution: 70.8% (inactive)

Exercise: Can you look up the measured viability of O=C(Nc1cnn(Cc2ccc(Cl)cc2Cl)c1)c1noc2c1CCCC2 for me?
Solution: 88.2% (inactive)

Exercise: Can you look up the measured viability of O=C(O)c1ccccc1S(=O)(=O)NCC(O)COc1ccc(Br)cc1 (stereo unspecified) for me?
Solution: 99.9% (inactive)

Exercise: Can you look up the measured viability of O=C(Nn1cnnc1)C1Cc2ccccc2CN1S(=O)(=O)c1ccc(F)cc1 (stereo unspecified) for me?
Solution: 97.2% (inactive)

Exercise: Can you look up the measured viability of CCn1c(CCNC(=O)c2ccc(OC)c(OC)c2)nc2ccccc21 for me?
Solution: 83.2% (inactive)

Exercise: Can you look up the measured viability of COC(=O)c1ccc(-c2nn(C)c(=O)c3ccccc23)cc1 for me?
Solution: 94.6% (inactive)

Exercise: Can you look up the measured viability of CCN1CCN(c2nc(C)nc3c2sc(=S)n3C)CC1 for me?
Solution: 90% (inactive)

Exercise: Can you look up the measured viability of CCOc1ccccc1C(=O)Nc1cc(=O)n(C)c(=O)n1C for me?
Solution: 88.1% (inactive)

Exercise: Can you look up the measured viability of CC(=O)NC(CCS(C)(=O)=O)C(=O)Nc1cccc2ccccc12 (stereo unspecified) for me?
Solution: 87.5% (inactive)

Exercise: Can you look up the measured viability of CCOc1ccccc1C1C(C(=O)Nc2ccc(OC)cc2)=C(C)Nc2nc(CCCO)nn21 (stereo unspecified) for me?
Solution: 91.3% (inactive)
